The entries below come with measured pKd values attached.
Target Entity: T1, MOCS2B wild-type (large subunit of MPT synthase) (human, UniProt O96007 1-188)
T1 construct: MOCS2B, large subunit of molybdopterin (MPT) synthase, human; encoded by MOCS2 transcript variant 3 (NM_004531.5); Cloned into pET15b, a vector that can add an N-terminal His tag; also called MOCS2B WT; WT MOCS2B; source: Escherichia coli BL21 (pET15b), purified (ammonium sulfate precipitation, size exclusion chromatography on Superdex 200)
T1 sequence (looked up): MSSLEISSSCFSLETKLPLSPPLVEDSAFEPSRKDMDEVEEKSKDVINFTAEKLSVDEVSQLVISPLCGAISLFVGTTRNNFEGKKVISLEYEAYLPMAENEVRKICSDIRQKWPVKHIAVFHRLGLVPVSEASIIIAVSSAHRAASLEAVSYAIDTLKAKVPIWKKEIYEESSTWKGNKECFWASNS
Experiment Summary: ITC; VP-ITC; 20-50 uM MOCS2B in the sample cell (1.5 mL), 200-500 uM MOCS2A in the syringe; 10 mM Tris-HCl, 250 mM NaCl, pH 8.0; n = 3 experiments
Setup Conditions: both partners purified
pKd (log units): -log10 of the concentration in mol/L.

MOCS2A p.Ile82Phe variant (natural protein, human, UniProt O96033 1-88, looked up, thiocarboxylated C-terminal tail, MOCS2A, small subunit of molybdopterin (MPT) synthase, human, patient variant c.244A>T (NM_176806.4; p.Ile82Phe), rs776441627; Variant found in patients (natural variant); also called MOCS2A I82F; MOCS2 p.Ile82Phe) MVPLCQVEVLYFAKSAEITGVRSETISVPQEIKALQLWKEIETRHPGLADVRNQIIFAVRQEYVELGDQLLVLQPGDEIAVFPPISGG	5.55

Now for a further binder.
Item under review: MOCS2A wild-type (small subunit of MPT synthase) (natural protein, human, UniProt O96033 1-88, looked up, thiocarboxylated C-terminal tail, MOCS2A, small subunit of molybdopterin (MPT) synthase, human; encoded by MOCS2 transcript variant 1 (NM_176806.4); also called MOCS2A WT; WT MOCS2A) MVPLCQVEVLYFAKSAEITGVRSETISVPQEIKALQLWKEIETRHPGLADVRNQIIFAVRQEYVELGDQLLVLQPGDEIAVIPPISGG . Reported pKd?
6.44

All figures here come from paper PMC12289762.
